measured.property: melting point

[[record]]
smiles_entry = "O=C(Cn1nc(-c2ccccc2O)nc1-c1ccccc1O)NCCO"
measured_value = "208 to 211 °C"

[[record]]
smiles_entry = "CCOC(=O)[C@H](CCc1ccccc1)N[C@@H](C)C(=O)N1N=C(c2ccccc2)S[C@H]1C(=O)O"
measured_value = "180 to 182 °C"

[[record]]
smiles_entry = "CCn1c(=O)c2c(nc(/C=C/c3ccc(OCC(=O)O)cc3)n2C)n(CC)c1=O"
measured_value = "268 to 269 °C"

[[record]]
smiles_entry = "CN1CCN(C2CCN(c3ccc(Nc4ncc5cc6ccccc6n5n4)cc3)CC2)CC1"
measured_value = "226 to 229 °C"


Value lookup for melting point; key = "C=CCNc1nc(-c2ccccc2)c(-c2ccc(=O)n(CC=C)n2)s1"
146 to 147 °C

---

Each entry below lists one item and its recorded melting point value.

[[record]]
smiles_entry = "CCOC(=O)c1cccc(Cc2ccc3ccccc3c2O)c1"
measured_property = "melting point"
measured_value = "86 to 87 °C"

[[record]]
smiles_entry = "CCOC(=O)Cc1ccc(-c2nc(COc3cc(C(=O)OC)on3)c(C)o2)cc1"
measured_property = "melting point"
measured_value = "124 to 126 °C"

[[record]]
smiles_entry = "COc1ccc(-c2ccc(C(=O)Nc3ccc4cc(CN5CCCC5)cnc4c3C)cn2)cc1"
measured_property = "melting point"
measured_value = "180 to 182 °C"


Now look at this entry.
Value lookup for melting point; key = "CCCS(=O)(=O)Cc1cccc(-c2nc(=O)c3ccccc3s2)n1"
177 to 179 °C

---

measured.property: melting point

// below: answered compounds
[[record]]
smiles_entry = "CS(=O)(=O)N(CCN1C(=O)c2ccccc2C1=O)c1c(Cl)c(Cl)cc2[nH]c(=O)c(=O)[nH]c12"
measured_value = "> 300 °C"

[[record]]
smiles_entry = "CCC(CC)c1ccc(Cl)c2nc3n(c12)CCCCN3c1ccc(N(C)C)cc1OC(F)(F)F"
measured_value = "158 to 159 °C"

[[record]]
smiles_entry = "NC(=O)c1cc2ccc(F)cc2nc1N"
measured_value = "259 to 262 °C"

[[record]]
smiles_entry = "O=C1c2ccc(N=CN3CCCCC3)cc2C(=O)c2ccc(N=CN3CCCCC3)cc21"
measured_value = "229 to 233 °C"


Value lookup for melting point; key = "CCOc1cc(Cc2cnc(N)nc2N)cc2c1OC(C)(C)C=C2"
184 to 186 °C

Value lookup for melting point; key = "COc1ccc(C(=O)Nc2ccccc2)cc1NCc1cccc(Cl)c1"
203 to 205 °C

---

measured.property: melting point

[[record]]
molecule = "CNc1sccc1C(=O)c1ccccc1F"
measured_property = "melting point"
measured_value = "184 to 186 °C"

[[record]]
molecule = "O=C1c2cc(Cl)c(Cl)cc2C(O)N1CCCl (centres undefined)"
measured_property = "melting point"
measured_value = "147 to 149 °C"

[[record]]
molecule = "O=C(NCCc1c[nH]cn1)c1[nH]c2ccc(Cl)cc2c1S(=O)(=O)c1ccccc1"
measured_property = "melting point"
measured_value = "220 to 222 °C"

[[record]]
molecule = "COC(=O)c1ccc(Cn2nc(C(N)=O)c3ccccc32)cc1"
measured_property = "melting point"
measured_value = "163 to 165 °C"

[[record]]
molecule = "COC1C(O)C(CO)OC1n1cnc(C(N)=O)c1N (centres undefined)"
measured_property = "melting point"
measured_value = "114 to 117 °C"


Value lookup for melting point; key = "COC(=O)c1cc(-c2ccc(OC)c(F)c2)nn(Cc2ccc(Cl)cc2)c1=O"
170 to 171 °C

Value lookup for melting point; key = "CCOC(=O)c1nc2ccc(OC)cc2n(C)c1=O"
166 °C

Value lookup for melting point; key = "COC1=C(OC)C(=O)C2=C(CCC(CCn3ccccc3=O)CC2)C1=O"
85 to 89 °C

Value lookup for melting point; key = "O=c1c2cccc3ncc(c(=O)n1CCCNS(=O)(=O)C(F)(F)F)n32"
124 to 125 °C
